experiment: in vivo; conditions: rat, choroid/sclera of the dosed eye, topical or ocular;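 further: drug levels in plasma and homogenized choroid/sclera and retina quantified by LC/MS/MS, parameters derived from mean concentrations, t1/2 from terminal log-linear slope, AUC via linear trapezoids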
Readout label: Tmax (h)
Answer with a number only, understood to be in h.

Prompt: Consider the compound shown here: Cc1ccc(Nc2nccc(N(C)c3ccc4c(C)n(C)nc4c3)n2)cc1S(N)(=O)=O.Cl [Pazopanib] What is its recorded Tmax?
Response: 4

* * *

assay: in vivo; conditions: rat, in vivo, topical or ocular, tmax, retina of dosed eye, single ocular instillation, regorafenib 21.2 mg/mL or pazopanib 4.9 mg/mL, 10 μL/eye
Readout label: Tmax (h)
Answer with a number only, understood to be in h.

Prompt: Consider the compound shown here: CNC(=O)c1cc(Oc2ccc(NC(=O)Nc3ccc(Cl)c(C(F)(F)F)c3)c(F)c2)ccn1.O What is its recorded Tmax?
Response: 7

FYI, the data here is from paper PMC6864407.
